Measured values drawn from patent US12319655B2 for this set.

- TGT: A-Raf kinase (SEQ. ID No: 1) (Homo sapiens (Human), UniProt P10398, Y301D/Y302D)
- Sequence (P10398 other isoform, or with tags, fused parts or gaps Y301D (already in the parent)/Y302D (already in the parent)): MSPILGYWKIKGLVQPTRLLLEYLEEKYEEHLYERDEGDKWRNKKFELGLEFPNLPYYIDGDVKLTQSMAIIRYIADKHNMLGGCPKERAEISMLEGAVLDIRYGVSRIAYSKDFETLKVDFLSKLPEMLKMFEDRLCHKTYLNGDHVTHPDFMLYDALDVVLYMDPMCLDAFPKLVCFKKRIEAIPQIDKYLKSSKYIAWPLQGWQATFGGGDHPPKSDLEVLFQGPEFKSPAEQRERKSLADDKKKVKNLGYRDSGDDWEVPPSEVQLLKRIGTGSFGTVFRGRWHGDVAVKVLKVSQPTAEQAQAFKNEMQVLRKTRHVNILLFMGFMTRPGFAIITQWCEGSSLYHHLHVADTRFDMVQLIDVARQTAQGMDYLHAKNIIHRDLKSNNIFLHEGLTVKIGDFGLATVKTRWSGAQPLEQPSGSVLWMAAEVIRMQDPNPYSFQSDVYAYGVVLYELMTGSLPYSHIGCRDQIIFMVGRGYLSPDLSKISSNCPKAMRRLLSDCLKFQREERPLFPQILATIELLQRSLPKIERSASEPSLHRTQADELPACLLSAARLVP
- TEST_PROTOCOL: Biochemical Assay for A-Raf (1)
- CONDITION_NOTES: Table J, assay version (1); read-out: ARAF (1) IC50
READOUT_KIND: IC50

- MOLECULE: "Cc1ccc(NC(=O)c2ccnc(C(C)(C)C#N)c2)cc1-c1cncc(-c2ccnc(NC=O)c2)n1 [Example 161]"
  TGT: "A-Raf kinase (SEQ. ID No: 1) (Homo sapiens (Human), UniProt P10398, Y301D/Y302D)"
  READOUT_KIND: "IC50"
  RESULT: "500 to 1000 nM"
- MOLECULE: "Cc1ccc(NC(=O)c2ccnc(C(C)(C)C#N)c2)cc1-c1ccnc(-c2ccnc(NC(=O)C3(C)CC3)c2)n1 [Example 248]"
  TGT: "A-Raf kinase (SEQ. ID No: 1) (Homo sapiens (Human), UniProt P10398, Y301D/Y302D)"
  READOUT_KIND: "IC50"
  RESULT: "1000 to 10000 nM"
- MOLECULE: "Cc1ncc(NC(=O)C2CCOC(C)(C)C2)cc1-c1cccc(-c2cc(NC(=O)C3CC3)ncn2)c1 (stereo not shown) [Example 348]"
  TGT: "A-Raf kinase (SEQ. ID No: 1) (Homo sapiens (Human), UniProt P10398, Y301D/Y302D)"
  READOUT_KIND: "IC50"
  RESULT: "1000 to 10000 nM"
- MOLECULE: "CC(=O)Nc1cc(-c2cc(-c3cc(NC(=O)c4ccnc(C(F)(F)F)c4)ccc3C)cn(C)c2=O)ccn1 [Example 21]"
  TGT: "A-Raf kinase (SEQ. ID No: 1) (Homo sapiens (Human), UniProt P10398, Y301D/Y302D)"
  READOUT_KIND: "IC50"
  RESULT: "1000 to 10000 nM"
- MOLECULE: "Cc1cc(F)c(NC(=O)c2ccnc(C(C)(C)C#N)c2)cc1-c1nccc(-c2ccnc(NC(=O)C3CC3)c2)n1 [Example 244]"
  TGT: "A-Raf kinase (SEQ. ID No: 1) (Homo sapiens (Human), UniProt P10398, Y301D/Y302D)"
  READOUT_KIND: "IC50"
  RESULT: "100 to 500 nM"
- MOLECULE: "CNC(=O)c1cc(-c2cc(-c3cc(NC(=O)c4ccnc(C(C)(C)C#N)c4)c(F)cc3C)ccn2)ccn1 [Example 176]"
  TGT: "A-Raf kinase (SEQ. ID No: 1) (Homo sapiens (Human), UniProt P10398, Y301D/Y302D)"
  READOUT_KIND: "IC50"
  RESULT: "1000 to 10000 nM"
- MOLECULE: "CCOc1ncc(-c2cc(NC(=O)c3ccnc(C(F)(F)F)c3)ccc2C)cc1-c1ccnc(NC(C)=O)c1 [Example 68]"
  TGT: "A-Raf kinase (SEQ. ID No: 1) (Homo sapiens (Human), UniProt P10398, Y301D/Y302D)"
  READOUT_KIND: "IC50"
  RESULT: "1000 to 10000 nM"
